system: COLO 205 colon; assay: NCI tumour cell line growth inhibition, 48 h
Measured TGI of individual entries

{"columns": ["substance_smiles", "TGI"],
 "data": [
  ["O=C1NC2(CCCC2)C(=O)C12CCCC2", "> 100 µM"],
  ["COc1ccc2nc(-c3ccc(OCc4ccccc4)cc3)ccc2c1", "> 100 µM"],
  ["N/C(CC(=O)Nc1cc(C(F)(F)F)ccc1Cl)=N\\O", "> 100 µM"]
]}

* * *

test system: HOP-92 NSCLC; experiment: NCI tumour cell line growth inhibition, 48 h

{"columns": ["compound", "TGI"],
 "data": [
  ["O=[N+]([O-])[C@@H]1C2C=CC(C2)[C@H]1Cl (some centres undefined)", "> 100 µM"],
  ["CO[C@@H](C(=O)OC1C=CC2(CC1)C(=O)N(C)c1ccccc12)c1ccccc1 (some centres undefined)", "> 100 µM"],
  ["N#Cc1c(N)[nH]c(=S)c(C#N)c1-c1cccc(Cl)c1", "> 100 µM"],
  ["CCn1c(-c2nonc2N)nc2c(C#CCN)ncc(OCCCN)c21", "> 25 µM"]
]}

* * *

system: OVCAR-5 ovarian; test: NCI tumour cell line growth inhibition, 48 h
TGI reference

{"columns": ["compound", "TGI"],
 "data": [
  ["O=C1O[C@@H](c2ccccc2)C[C@@H]1CN1CCOCC1", "> 100 µM"],
  ["COc1ccc(C2C(Cl)C(=O)N2NC(=O)c2ccc(NC(C)=O)cc2)cc1 (stereo unspecified)", "> 100 µM"],
  ["Cc1sc2nc3n(c(=O)c2c1C)N=CN(c1ccccc1)C3", "> 100 µM"],
  ["Cc1ccc(-c2cc(N)n(-c3nc4c([nH]3)c(=O)n(C)c(=O)n4C)n2)cc1", "> 100 µM"],
  ["COc1ccc(-c2c(C#N)c(N)n(C3OC(CO)C(O)C(O)C3O)c(=S)c2C#N)cc1 (stereo unspecified)", "> 100 µM"],
  ["CSc1nc(SC)c2c(CN=[N+]=[N-])c(Br)n(Cc3ccccc3)c2n1", "> 100 µM"],
  ["CC(=O)NC1C(OCc2ccccc2)OC(CO)C(O)C1OCC(=O)N[C@@H](C)C(=O)N[C@H](CCC(=O)NCCNCCNc1c2ccccc2nc2cccc([N+](=O)[O-])c12)C(N)=O (stereo partly specified)", "> 100 µM"],
  ["C=C1C(O)C2CCC(C)(C)C(=O)C2=C(CC(C)C)C12CC2 (stereo unspecified)", "> 100 µM"],
  ["COC1(C)CC2N(C(=O)c3ccccc3)N=C(c3ccccc3)CC2(C)O1 (stereo unspecified)", "> 100 µM"],
  ["CC(C)(C)OC(=O)NC(Cc1ccccc1)C(=O)OCN1C(=O)C2C3C=CC(C2C1=O)C1C2C(=O)N(COC(=O)C(Cc4ccccc4)NC(=O)OC(C)(C)C)C(=O)C2C31 (stereo unspecified)", "> 100 µM"],
  ["O=c1c2c3ccccc3[nH]c2c2cccc3c2n1CCC3", "> 100 µM"],
  ["CCCCCCCCCCCCC(=O)OC(c1cnco1)c1nc(C(O)CC(O)C(O)C(C)O)co1 (stereo unspecified)", "> 100 µM"],
  ["Cc1ccn2c3c(c(C(=O)O)c2c1)C(=O)c1ccccc1C3=O", "> 100 µM"],
  ["COc1cc2oc(-c3ccc(O)cc3)c(OC3OC(C)C(O)C(O)C3O)c(=O)c2c(O)c1OC (stereo unspecified)", "> 100 µM"],
  ["C=C1C(=O)O[C@H]2[C@H]1CC/C(CNC(=O)c1c[nH]c3ccc(F)cc13)=C\\CC[C@@]1(C)O[C@@H]21", "4.82 µM"],
  ["O=C(NNc1nc2c(F)cccc2n2cccc12)c1cnccn1", "> 61.1 µM"],
  ["Oc1ccccc1C(c1cc2c(cc1O)OCO2)N1CCOCC1 (stereo unspecified)", "57.8 µM"],
  ["Cc1nn(-c2ccc(F)cc2)c2ncnc(Nc3ccc(NC(=O)Nc4ccc(Cl)c(C(F)(F)F)c4)cc3)c12", "11.9 µM"],
  ["CCSc1nnc(CSc2nc(-c3ccccc3)c(-c3ccccc3)[nH]2)n1-c1ccccc1", "30.4 µM"],
  ["O=C(Nc1nc2ccccc2s1)OCC(F)(F)F", "> 100 µM"],
  ["CN1CCN(Cc2ccc(C(=O)Nc3cncc(C#Cc4cnc(N)c5ccccc45)c3)cc2C(F)(F)F)CC1", "6.91 µM"],
  ["Nc1nc(Cl)cc(NCC2(CO)CC(CCc3ccccc3)C2)n1 (stereo unspecified)", "> 100 µM"],
  ["CO[C@@H](C(=O)OC1C=CC2(CC1)C(=O)N(C)c1ccccc12)c1ccccc1 (stereo partly specified)", "> 100 µM"],
  ["c1cc2nnc1SCCSCCSc1ccc(nn1)SCCSCCS2", "> 100 µM"],
  ["Cc1cn(C2C=CC(COP(=O)(OCC3=CC(=O)c4ccccc4C3=O)N(C)CCCCCl)O2)c(=O)[nH]c1=O (stereo unspecified)", "27.1 µM"],
  ["C=CC1=CSNN1", "> 100 µM"],
  ["O=C(/C(=C(/Br)I)c1ccccc1)c1ccccc1", "> 100 µM"],
  ["CC(C)(C)OC(=O)NCCCCC(NC(=O)OCc1ccccc1)C(N)=O (stereo unspecified)", "> 100 µM"],
  ["CN1CCN(CC#Cc2cccc(C(=O)c3cnn(-c4ccc(F)cc4)c3N)c2)CC1", "> 25 µM"],
  ["COc1ccc(/C(=C/n2ccnc2)C(=O)c2ccc(OC)c(OC)c2)cc1", "> 100 µM"],
  ["COC(=O)C(C#N)=C1c2ccccc2Oc2ccccc21", "> 100 µM"]
]}
